test: Voltage-Clamp Assay: All experiments were conducted at room temperature (22-24° C.) with an EPC-10 amplifier and Pulse software (HEKA, Lambrecht/Pfalz, Germany) in the whole-cell mode of the patch-clamp technique. Human embryonic kidney (HEK)-293 cell lines stably expressing hNav1.1, hNav1.5, hNav1.7 channels (generously provided by Dr. Christopher Lossin, University of California Davis), hNav1.4 (Frank Lehmann-Horn, University of Ulm), or hKv2.1 channels (James Trimmer, University of California Davis) were bathed in extracellular solution containing (in mM): 160 NaCl; 4.5 KCl; 1 MgCl2; 2 CaCl2; 10 HEPES [pH was adjusted to 7.4 using NaOH (310 mOsm)]. Pipettes were filled with intracellular solution containing (in mM): 145 KF; 2 MgCl2; 10 ethylene glycol tetraacetic acid; 10 HEPES (pH adjusted to 7.2 with KOH; 300 mOsm). Neuroblastoma N1E-115 cells (ATCC, Manassa, Va., USA) expressing Nav1.2 were patched with a CsF internal solution consisting of (in mM): 10 NaF; 110 CsF; 20 CsCl; 2 ethylene glycol tetraacetic acid; 10 HEPES (CsOH to pH 7.35; 300 mOsm). All pipette tip resistances were 2-4 MΩ. Series resistances of 3-10 MΩ were compensated 40-80%. All cells were voltage-clamped to a holding potential of −90 mV unless otherwise specified. The sampling frequency was 5 kHz. Na+ currents were elicited by 30-ms pulse to 0 mV from −90 mV applied every 10 s. Kv2.1 currents were elicited by 200-ms voltage steps from −90 to 40 mV applied every 10 s. HEK-293 or COS-7 cells stably expressing hKCa2.1, rKCa2.2, and hKCa2.3 have been described previously (Sankaranarayanan et al., 2009). Cells were held at −80 mV and KCa currents elicited by dialysis with a K+ aspartate based internal containing 250 nM free Ca2+ (pH 7.2, 290 mOsm, pipette resistance 1.5 MΩ). To reduce currents from native chloride channels, Na+ aspartate Ringer was used as an external solution. KCa2 currents were recorded with 200-ms voltage ramps from −120 to +40 mV applied every 10 s, and the fold increase of slope conductance at −80 mV by drug was taken as a measure of channel activation. Data analysis, fitting, and plotting were performed with IGOR-Pro (Wavemetrics, Lake Oswego, Oreg., USA) and Origin 9.0 (OriginLab, Northampton, Mass., USA).
property-name: EC50
Kindly report the value followed by its unit.

Just so you know, measured EC50 for `Nc1nc2ccc(SC(F)(F)F)cc2s1` came out at 4.5 µM
